// molecules with IC50 on UniProt Q9GZT9, multi-source literature
Answers are plain numbers, in µM.

// worked examples, IC50 included
{"Molecule": "CCOC(=O)C(C)(O)CNC(=O)c1ncc(C(=O)NC(c2ccccc2)c2ccccc2)c(O)n1 (single isomer, unassigned)", "Reading Unit": "µM", "Reported": 0.879}
{"Molecule": "Cc1ccc([C@@H](C)n2ncc3nc(-n4cc(C(=O)O)cn4)nc(O)c32)cc1C(F)(F)F", "Reading Unit": "µM", "Reported": 0.061}
{"Molecule": "O=C(O)c1cnn(-c2nc(O)c3c(cnn3Cc3ccc(-c4ccccc4F)cc3F)n2)c1", "Reading Unit": "µM", "Reported": 0.0089}

Hi there! I need IC50 for each item below, if you can.
1. O=C(O)CNC(=O)c1c(O)c2c(n(Cc3cccc(Cl)c3)c1=O)COC2
2. COc1ccc(Cn2c3c(c(O)c(C(=O)NCC(=O)O)c2=O)COCC3)cn1
3. O=C(O)c1cnn(-c2nc(O)c3c(cnn3CCCOc3ccc4c(c3C3CC3)CCCC4)n2)c1
4. CCC(c1ccc(F)cc1)n1ncc2nc(-n3cc(C(=O)O)cn3)nc(O)c21 (single isomer, unassigned)
5. CCOC(=O)C1(CNC(=O)c2cc(O)c(C(=O)NC(c3ccc(Cl)cc3)c3ccc(Cl)cc3)cn2)CC1
6. Cn1c(=O)c(C(=O)NCC(=O)O)c(O)c2cnc(C#CC3CC3)nc21

[out]
0.0043
0.0174
0.13
0.036
0.184
0.012
